Values were extracted from patent US12209145B2.

Test system: PCSK9 (Homo sapiens, UniProt Q8NBP7)
Construct: Biotinylated PCSK9 was obtained commercially; purchased
Sequence (Q8NBP7 153-692): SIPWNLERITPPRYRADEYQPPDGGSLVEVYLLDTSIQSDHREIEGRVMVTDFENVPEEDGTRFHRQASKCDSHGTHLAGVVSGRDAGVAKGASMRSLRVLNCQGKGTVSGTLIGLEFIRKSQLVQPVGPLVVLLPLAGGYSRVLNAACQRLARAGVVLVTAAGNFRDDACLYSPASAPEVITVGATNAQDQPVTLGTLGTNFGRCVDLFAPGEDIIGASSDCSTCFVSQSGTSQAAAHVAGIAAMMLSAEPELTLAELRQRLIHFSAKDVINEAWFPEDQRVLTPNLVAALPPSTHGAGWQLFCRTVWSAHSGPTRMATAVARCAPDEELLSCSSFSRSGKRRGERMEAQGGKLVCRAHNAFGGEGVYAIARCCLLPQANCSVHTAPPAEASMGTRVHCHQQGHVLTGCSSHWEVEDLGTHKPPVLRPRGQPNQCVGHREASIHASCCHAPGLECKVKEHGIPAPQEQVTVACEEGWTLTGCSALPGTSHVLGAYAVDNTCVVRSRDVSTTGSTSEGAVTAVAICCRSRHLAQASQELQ
Test name: PCSK9 Alexa FRET Plus TR-FRET assay (displacement of AlexaFluor647 tagged cyclic peptide Reagent B)
Type: binding
Condition: 0.5 nM biotinylated PCSK9, 960 nM AF cyclic peptide Reagent B; Ki calculated from IC50 and KD of AF peptide; read-out: Ki Plus
Ki under 10 pM gets true, anything at or over 10 pM gets false.

Study these solved cases before continuing.
Structure smiles	Assigned class
COc1ccc(C[C@@H]2NC(=O)[C@H]([C@@H](C)O)NC(=O)[C@@H]3[C@@H]4CCN3C(=O)[C@@H]3Cc5cn(c6ccc(F)cc56)Cc5cn(nn5)CC(NC(=O)CCCCCC(=O)N[C@H](CNC(=O)CCOCCOCC[N+](C)(C)C)C(=O)N[C@@H](Cc5cccc(c5)CNC(=O)CO4)C(=O)N3)c3ccc(cc3)CCNC(=O)[C@]3(C)CCCN3C2=O)cc1	false
COc1ccc(C[C@@H]2NC(=O)[C@H]([C@@H](C)O)NC(=O)[C@@H]3[C@@H]4CCN3C(=O)[C@@H]3Cc5cn(c6ccc(F)cc56)C/C=C/CCCN(Cc5ccc(cc5)CCNC(=O)[C@]5(C)CCCN5C2=O)C(=O)CCC(=O)N[C@@H](CNC(=O)CCOCCOCC[N+](C)(C)C)C(=O)N[C@H](C)C(=O)N[C@@H](Cc2cccc(c2)CNC(=O)CO4)C(=O)N3)cc1	true
COc1ccc(C[C@@H]2NC(=O)[C@H]([C@@H](C)O)NC(=O)[C@@H]3[C@@H]4CCN3C(=O)[C@@H]3Cc5cn(c6ccc(F)cc56)CCCCN(Cc5ccc(cc5)CCNC(=O)[C@]5(C)CCCN5C2=O)C(=O)CCC(=O)N[C@@H](C)C(=O)N[C@H](CNC(=O)CCOCCOCC[N+](C)(C)C)C(=O)N[C@@H](Cc2cccc(c2)CNC(=O)CO4)C(=O)N3)cc1	true

Quick check: Ki of COc1ccc(C[C@@H]2NC(=O)[C@H]([C@@H](C)O)NC(=O)[C@@H]3[C@@H]4CCN3C(=O)[C@@H]3Cc5cn(c6ccc(F)cc56)Cc5cn(nn5)CCN(Cc5ccc(cc5)CCNC(=O)[C@]5(C)CCCN5C2=O)C(=O)CCCCCC(=O)N[C@H](CNC(=O)CCOCCOCC[N+](C)(C)C)C(=O)N[C@@H](Cc2cccc(c2)CNC(=O)CO4)C(=O)N3)cc1 under 10 pM?
false

Quick check: Ki of COc1ccc(C[C@@H]2NC(=O)[C@H]([C@@H](C)O)NC(=O)[C@@H]3[C@@H]4CCN3C(=O)[C@@H]3Cc5cn(c6ccc(F)cc56)CCCCCCN(Cc5ccc(cc5)CCNC(=O)[C@]5(C)CCCN5C2=O)C(=O)CCC(=O)N[C@@H](CNC(=O)CCOCCOCC[N+](C)(C)C)C(=O)N[C@H](C)C(=O)N[C@@H](Cc2cccc(c2)CNC(=O)CO4)C(=O)N3)cc1 under 10 pM?
true

Quick check: Ki of COc1ccc(C[C@@H]2NC(=O)[C@H]([C@@H](C)O)NC(=O)[C@@H]3[C@@H]4CCN3C(=O)[C@@H]3Cc5cn(c6ccc(F)cc56)Cc5cn(nn5)C[C@@H](NC(=O)CCC(=O)N[C@@H](C)C(=O)N[C@H](CNC(=O)CCOCCOCC[N+](C)(C)C)C(=O)N[C@@H](Cc5cccc(c5)CNC(=O)CO4)C(=O)N3)c3ccc(cc3)CCNC(=O)[C@]3(C)CCCN3C2=O)cc1 under 10 pM?
true

* * *

Test system: PCSK9 (Homo sapiens, UniProt Q8NBP7)
Construct: Biotinylated PCSK9 was obtained commercially; purchased
Test name: PCSK9 Alexa FRET Plus TR-FRET assay (displacement of AlexaFluor647 tagged cyclic peptide Reagent B)
Type: binding
Condition: Ki Plus, 0.5 nM biotinylated PCSK9, 960 nM AF cyclic peptide Reagent B; Ki calculated from IC50 and KD of AF peptide
Experimental: The following is a description of the assays used to determine activity of compounds of the invention, and any comparator compounds reported, toward PCSK9 antagonism. Biotinylated PCSK9 was obtained commercially. A solution containing 1 nM biotinylated PCSK9+2.5 nM Lance Streptavidin Europium (Strep-Eu) is made in 50 mM HEPES pH 7.4, 0.15 M NaCl, 5 mM CaCl2, 0.01% BSA, and 0.01% Surfactant P20. […] IC50 values are determined by fitting data to a sigmoidal dose-response curve using nonlinear regression. […]
pKi for assorted compounds
# pKi is unitless: minus log10 of the molar concentration; print number only

Below: 2 compounds and their reported pKi.
Structure smiles	pKi
COc1ccc(C[C@@H]2NC(=O)[C@H]([C@@H](C)O)NC(=O)[C@@H]3[C@@H]4CCN3C(=O)[C@@H]3Cc5cn(c6ccc(F)cc56)CCCCCOCc5cc(ccc5CNC(=O)CCC(=O)N[C@@H](C)C(=O)N[C@H](CNC(=O)CCCCC[N+](C)(C)C)C(=O)N[C@@H](Cc5cccc(c5)CNC(=O)CO4)C(=O)N3)CCNC(=O)[C@]3(C)CCCN3C2=O)cc1	11.15
COc1ccc(C[C@@H]2NC(=O)[C@H]([C@@H](C)O)NC(=O)[C@@H]3C4CCN3C(=O)[C@@H]3Cc5cn(c6ccc(F)cc56)CCCCC[C@@H](NC(=O)CCC(=O)N[C@@H](C)C(=O)N[C@H](CNC(=O)CCOCCOCC[N+](C)(C)C)C(=O)N[C@@H](Cc5cccc(c5)CNC(=O)CO4)C(=O)N3)c3ccc(cc3)CCNC(=O)[C@]3(C)CCCN3C2=O)cc1	10.93

Quick one: pKi of COc1ccc(C[C@@H]2NC(=O)[C@H]([C@@H](C)O)NC(=O)[C@@H]3[C@@H]4CCN3C(=O)[C@@H]3Cc5cn(c6ccc(F)cc56)CCCCOc5cc(ccc5CNC(=O)CCC(=O)N[C@@H](C)C(=O)N[C@H](CNC(=O)CCOCCOCC[N+](C)(C)C)C(=O)N[C@@H](Cc5cccc(c5)CNC(=O)CO4)C(=O)N3)CCNC(=O)[C@]3(C)CCCN3C2=O)cc1 ?
10.14

* * *

Test system: PCSK9 (Homo sapiens)
Construct: Biotinylated PCSK9 was obtained commercially; purchased
Test name: PCSK9 Alexa FRET Ultra TR-FRET assay (displacement of AlexaFluor647 tagged cyclic peptide)
Assay type: binding
Condition: 0.5 nM biotinylated PCSK9, 960 nM AF cyclic peptide; Ki calculated from IC50 and KD of AF peptide; read-out: Ki Ultra
Experimental endpoint: Ki (nM)
Respond numerically; units are nM and should not be typed.

Structure smiles	Display unit	Ki
COc1ccc(C[C@@H]2NC(=O)[C@H]([C@@H](C)O)NC(=O)[C@@H]3[C@@H]4CCN3C(=O)[C@@H]3Cc5cn(c6ccc(F)cc56)Cc5cn(nn5)CCN(Cc5ccc(cc5)CCNC(=O)[C@]5(C)CCCN5C2=O)C(=O)CCC(=O)N[C@@H](C)C(=O)N[C@H](CNC(=O)CCOCCOCC[N+](C)(C)C)C(=O)N[C@@H](Cc2cccc(c2)CNC(=O)CO4)C(=O)N3)cc1	nM	0.021

Lab note: need Ki with PCSK9 (Homo sapiens) for entry COc1ccc(C[C@@H]2NC(=O)[C@H]([C@@H](C)O)NC(=O)[C@@H]3[C@@H]4CCN3C(=O)[C@@H]3Cc5cn(c6ccc(F)cc56)Cc5cn(nn5)CCN(Cc5ccc(cc5)CCNC(=O)[C@]5(C)CCCN5C2=O)C(=O)CCCCCC(=O)N[C@H](CNC(=O)CCOCCOCC[N+](C)(C)C)C(=O)N[C@@H](Cc2cccc(c2)CNC(=O)CO4)C(=O)N3)cc1 , please look it up.
0.0514

* * *

Test system: PCSK9 (Homo sapiens)
Construct: Biotinylated PCSK9 was obtained commercially; purchased
Test name: PCSK9 Alexa FRET Plus TR-FRET assay (displacement of AlexaFluor647 tagged cyclic peptide Reagent B)
Assay type: binding
Condition: Ki Plus, 0.5 nM biotinylated PCSK9, 960 nM AF cyclic peptide Reagent B; Ki calculated from IC50 and KD of AF peptide
Experimental endpoint: Ki

Below: 4 compounds and their reported Ki.
Compound	Ki
COc1ccc(C[C@@H]2NC(=O)[C@H]([C@@H](C)O)NC(=O)[C@@H]3[C@@H]4CCN3C(=O)[C@@H]3Cc5cn(c6ccc(F)cc56)CCCCCCN(Cc5cccc(c5)CCNC(=O)[C@]5(C)CCCN5C2=O)C(=O)CCC(=O)N[C@@H](C)C(=O)N[C@H](CNC(=O)CCCCC[N+](C)(C)C)C(=O)N[C@@H](Cc2cccc(c2)CNC(=O)CO4)C(=O)N3)cc1	14.5 pM
COc1ccc(C[C@@H]2NC(=O)[C@H]([C@@H](C)O)NC(=O)[C@@H]3[C@@H]4CCN3C(=O)[C@@H]3Cc5cn(c6ccc(F)cc56)CCCCC[C@@H](NC(=O)CCC(=O)N[C@@H](C)C(=O)N[C@H](CNC(=O)CCCCC[N+](C)(C)C)C(=O)N[C@@H](Cc5cccc(c5)CNC(=O)CO4)C(=O)N3)c3ccc(cc3)CCNC(=O)[C@]3(C)CCCN3C2=O)cc1	9.04 pM
COCCC[N+](C)(C)CCCCCC(=O)NC[C@H]1NC(=O)[C@H](C)NC(=O)CCC(=O)N2CCCCCCn3cc(c4cc(F)ccc43)C[C@@H]3NC(=O)[C@H](Cc4cccc(c4)CNC(=O)CO[C@H]4CCN(C3=O)[C@@H]4C(=O)N[C@@H]([C@@H](C)O)C(=O)N[C@@H](Cc3ccc(OC)cc3)C(=O)N3CCC[C@@]3(C)C(=O)NCCc3ccc(cc3)C2)NC1=O	< 5.58 pM
COc1ccc(C[C@@H]2NC(=O)[C@H]([C@@H](C)O)NC(=O)[C@@H]3[C@@H]4CCN3C(=O)[C@@H]3Cc5cn(c6ccc(F)cc56)CCCCCCN(Cc5ccc(cc5)CCNC(=O)[C@]5(C)CCCN5C2=O)C(=O)CCC(=O)N[C@@H](C)C(=O)N[C@H](CNC(=O)CCOCC[N+](C)(C)C)C(=O)N[C@@H](Cc2cccc(c2)CNC(=O)CO4)C(=O)N3)cc1	< 5.58 pM

Quick one: Ki of COc1ccc(C[C@@H]2NC(=O)[C@H]([C@@H](C)O)NC(=O)[C@@H]3[C@@H]4CCN3C(=O)[C@@H]3Cc5cn(c6ccc(F)cc56)CCCCOCc5cc(ccc5CNC(=O)CCC(=O)N[C@@H](C)C(=O)N[C@H](CNC(=O)CCCCC[N+](C)(C)C)C(=O)N[C@@H](Cc5cccc(c5)CNC(=O)CO4)C(=O)N3)CCNC(=O)[C@]3(C)CCCN3C2=O)cc1 ?
7.16 pM

Quick one: Ki of COc1ccc(C[C@@H]2NC(=O)[C@H]([C@@H](C)O)NC(=O)[C@@H]3[C@@H]4CCN3C(=O)[C@@H]3Cc5cn(c6ccc(F)cc56)CCCCCCN(Cc5ccc(cc5)CCNC(=O)[C@]5(C)CCCN5C2=O)C(=O)CCC(=O)N[C@@H](C)C(=O)N[C@H](CNC(=O)CCCCCCCC[N+](C)(C)C)C(=O)N[C@@H](Cc2cccc(c2)CNC(=O)CO4)C(=O)N3)cc1 ?
7.47 pM

Quick one: Ki of COc1ccc(C[C@@H]2NC(=O)[C@H]([C@@H](C)O)NC(=O)[C@@H]3[C@@H]4CCN3C(=O)[C@@H]3Cc5cn(c6ccc(F)cc56)CCCCCCN(Cc5ccc(cc5)CCNC(=O)[C@]5(C)CCCN5C2=O)C(=O)CCC(=O)N[C@@H](CCCC[N+](C)(C)C)C(=O)N[C@H](CNC(=O)CCOCCOCC[N+](C)(C)C)C(=O)N[C@@H](Cc2cccc(c2)CNC(=O)CO4)C(=O)N3)cc1 (stereo in doubt) ?
8.12 pM

Quick one: Ki of COc1ccc(C[C@@H]2NC(=O)[C@H]([C@@H](C)O)NC(=O)[C@@H]3[C@@H]4CCN3C(=O)[C@@H]3Cc5cn(c6ccc(F)cc56)CCCCCCN(Cc5ccc(cc5)CCNC(=O)[C@]5(C)CCCN5C2=O)C(=O)CCC(=O)N[C@@H](C)C(=O)N[C@H](CNC(=O)CNC(=O)CCCCC[N+](C)(C)C)C(=O)N[C@@H](Cc2cccc(c2)CNC(=O)CO4)C(=O)N3)cc1 ?
6.51 pM

Quick one: Ki of COc1ccc(C[C@@H]2NC(=O)[C@H](C)NC(=O)[C@@H]3[C@@H]4CCN3C(=O)[C@@H]3Cc5cn(c6ccc(F)cc56)CCCCCCN(Cc5ccc(cc5)CCNC(=O)[C@]5(C)CCCN5C2=O)C(=O)CCC(=O)N[C@@H](C)C(=O)N[C@H](CNC(=O)CCCCC[N+](C)(C)C)C(=O)N[C@@H](Cc2cccc(c2)CNC(=O)CO4)C(=O)N3)cc1 ?
7.62 pM

Quick one: Ki of COc1ccc(C[C@@H]2NC(=O)[C@H]([C@@H](C)O)NC(=O)[C@@H]3[C@@H]4CCN3C(=O)[C@@H]3Cc5cn(c6ccc(F)cc56)CCCCCCN(Cc5ccc(cc5)CCNC(=O)[C@]5(C)CCCN5C2=O)C(=O)CCCCCC(=O)N[C@H](CNC(=O)CCOCCOCC[N+](C)(C)C)C(=O)N[C@@H](Cc2cccc(c2)CNC(=O)CO4)C(=O)N3)cc1 ?
5.69 pM

Quick one: Ki of COCC[N+](C)(C)CCCCCC(=O)NC[C@H]1NC(=O)[C@H](C)NC(=O)CCC(=O)N2CCCCCCn3cc(c4cc(F)ccc43)C[C@@H]3NC(=O)[C@H](Cc4cccc(c4)CNC(=O)CO[C@H]4CCN(C3=O)[C@@H]4C(=O)N[C@@H]([C@@H](C)O)C(=O)N[C@@H](Cc3ccc(OC)cc3)C(=O)N3CCC[C@@]3(C)C(=O)NCCc3ccc(cc3)C2)NC1=O ?
7.73 pM
